Cited source: PubChem BioAssay AID504582

- protocol details: rescue of yeast from PfHsp40 toxicity, primary screen, S. cerevisiae, ATP luminescence (AID 504582);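 also: yeast W303a lacking pdr1 and pdr3 grown in galactose medium; growth measured after three days at 30 °C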
- condition notes: S. cerevisiae expressing PfHsp40, growth rescue, at 12.5 µM
Among all 340,000 compounds or so, about 2,300 (0.68%) were called active. Rule as the data show it: active = growth rescue above about 28% (passing the limit was not always enough); inconclusive = no clear call, values can overlap the other calls. This excerpt belongs to a sample that is enriched for actives.
Assign a class; possible classes are Yes = active, No = inactive

Previously resolved entries follow.
molecule	qualitative label
CSc1ccc(CNCCN2CCOCC2)cc1	No
O=C(NCC1COc2ccccc2O1)C1(c2ccccc2)CCCC1 (stereo unspecified)	No
CCC1CCCCN1CCNC(=O)c1[nH]c(C)c(C(C)=O)c1C (stereo unspecified)	No
Cc1ccc(S(=O)(=O)NCC(=O)N(CC(=O)NC(C)(C)C)Cc2cccs2)cc1	No
Cc1[nH]c2c(C(=O)N3CCCC(CCC(=O)NCc4ccccc4F)C3)cccc2c1C (stereo unspecified)	No
CN(C)CC1Oc2ccccc2OC1(O)c1ccccc1 (stereo unspecified)	Yes
c1ccc(C(=NNc2nc3ccccc3s2)c2ccccn2)cc1	Yes
COc1cc(OC)nc(N/N=C(\c2ccccc2)c2ccncc2)n1	No
CC/C(=N\NC(=O)c1ccccc1Cl)c1ccc(Br)s1	No
CN(C)CCOC(=O)C(c1ccccc1)C1(O)CCCC1 (stereo unspecified)	No

Continue with the next molecule.
How was CC/C(=N\NC(=O)c1ccccc1O)c1c(O)n(Cc2ccccc2)c(=O)[nH]c1=O classified in this test? Yes

###

- protocol details: rescue of yeast from PfHsp40 toxicity, primary screen, S. cerevisiae, ATP luminescence (AID 504582)
- condition notes: S. cerevisiae expressing PfHsp40, growth rescue, at 12.5 µM, hits give high values
Screen size: about 340,000 compounds; about 2,300 (0.68%) were called active. The sample as a whole holds a higher share of actives than the screen did.
Each item that follows carries a reported growth rescue.
Output spec: scalar in %, unitless text.

O=C(NCCc1ccccc1)Oc1ccc(Cl)cc1 -0.082
COC(=O)[C@@H]1C[C@@]2(O)[C@@H](O)[C@@H](O)[C@@H](O)C[C@H]2N1Cc1ccc(C)s1 -0.441
Cc1cc(C(=O)NCCc2ccc(Cl)cc2)n(-c2ccccc2)n1 0.0165
CCOc1ccccc1N(CC(=O)NC1CCCCC1)C(=O)CCCC(=O)Nc1ccccn1 0.515
COc1ccc2sc(-c3ccc(S(C)(=O)=O)cc3)c(C#Cc3cncn3C)c2c1 -1.56

For the molecule CCOc1cc(/C=C(/C#N)c2ccc(Cl)cc2)cc(Cl)c1OCC(=O)O , give its reported growth rescue. -0.745

###

- protocol details: rescue of yeast from PfHsp40 toxicity, primary screen, S. cerevisiae, ATP luminescence (AID 504582)
- condition notes: S. cerevisiae expressing PfHsp40, growth rescue, at 12.5 µM
The whole screen tested about 340,000 compounds, of which about 2,300 (0.68%) were called active. No stated cut-off is given here; in the data, active means growth rescue above about 28% (passing the limit was not always enough); inconclusive means no clear call, values can overlap the other calls. The full list was thinned out, with actives kept by preference.
Assign a class; possible classes are active, inactive

Previously resolved entries follow.
molecule	qualitative label
O=C(OCc1ccc(-c2ccccc2)cc1)c1cccc(O)c1	active
Oc1ccc(-c2nnc(Nc3ccccc3)c3ccccc23)cc1	inactive
CCOc1ccccc1NC(=O)C1CCCN(S(=O)(=O)c2ccccc2)C1 (stereo unspecified)	inactive
Cc1ccccc1NC(=O)C1CCCN(C(=O)NCc2ccccc2)C1 (stereo unspecified)	inactive

How was Cc1cccc(-c2nc(Nc3ccc(O)cc3)c3ccccc3n2)c1 classified in this test? active

How was O=C(c1ccc(-c2ccccc2)cc1)C1CCCN(C(=O)c2cncs2)C1 (stereo unspecified) classified in this test? active

How was Cc1nc(C(=O)N2CCCC(C(=O)c3ccc(Cl)cc3)C2)cs1 (stereo unspecified) classified in this test? inactive

How was Cn1nccc1C(=O)N1CCCC(C(=O)c2ccc(Oc3ccccc3)cc2)C1 (stereo unspecified) classified in this test? inactive

How was CN1CCN(c2nc(Nc3ccc(O)cc3)nc3ccccc23)CC1 classified in this test? inactive

How was O=C(N[C@@H](Cc1c[nH]c2ccccc12)C(=O)O)OCC1c2ccccc2-c2ccccc21 classified in this test? inactive

How was CCNC(=O)N1CCCC(C(=O)c2ccc(-c3ccccc3)cc2)C1 (stereo unspecified) classified in this test? active

###

- protocol details: rescue of yeast from PfHsp40 toxicity, primary screen, S. cerevisiae, ATP luminescence (AID 504582)
- condition notes: S. cerevisiae expressing PfHsp40, growth rescue, at 12.5 µM
The campaign covered roughly 340,000 compounds. About 2,300 (0.68%) were called active. Cut-off read from the data, not from the text of the source: active = growth rescue above about 28% (passing the limit was not always enough); inconclusive = no clear call, values can overlap the other calls. Only a selection was taken, and actives are over-represented in it overall.
Assign a class; possible classes are active, inactive

compound	qualitative label
C=CCc1ccc(OCC(O)CN2CCN(Cc3ccccc3)CC2)c(OC)c1 (stereo unspecified)	inactive
CC(=O)c1cccc(NC(=S)N2CCN(S(C)(=O)=O)CC2)c1	inactive
COC(=O)c1nc(NC(=O)c2ccccc2)n[nH]1	inactive

How was O=C(Nc1ccc2ccccc2c1[N+](=O)[O-])c1ccccc1 classified in this test? inactive

How was Cc1ccc(OCC(O)CN2CCN(CC(O)COc3ccc(C)cc3Cl)CC2)c(Cl)c1 (stereo unspecified) classified in this test? active

How was CCCCNC(=O)N(O)C1N(/N=C/c2ccc(N(C)C)cc2)C(=S)SC1(C)C (stereo unspecified) classified in this test? inactive

###

Each item that follows carries a reported growth rescue.
- protocol details: rescue of yeast from PfHsp40 toxicity, primary screen, S. cerevisiae, ATP luminescence (AID 504582);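 also: yeast W303a lacking pdr1 and pdr3 grown in galactose medium; growth measured after three days at 30 °C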
- condition notes: S. cerevisiae expressing PfHsp40, growth rescue, at 12.5 µM, hits give high values
Among all 340,000 compounds or so, about 2,300 (0.68%) were called active. The entries come from a sample that favours actives as a whole.
Output spec: scalar in %, unitless text.

molecule	growth rescue [%]
COc1ccc(CCNS(=O)(=O)c2cccc3cccnc23)cc1OC	0.122
O=C(Nc1ccc2ccccc2c1)/C(=C/c1cccc(Br)c1)NC(=O)c1ccco1	1.72
Cc1ccc(C(NC(=O)N2CCCC2)C(Cl)(Cl)Cl)cc1F (configuration not stated)	-0.492
CCN(CC)C(=O)COc1coc(CN2CCN(Cc3ccccc3)CC2)cc1=O	-0.869
CCOC(=O)CNC(=O)CSc1ncccc1-c1nc2ccccc2[nH]1	0.257
COC(=O)C1(C)NC(c2ccccc2OC)C2C(=O)N(c3ccccc3)C(=O)C21 (configuration not stated)	-1.44
O=C(NN1C(=O)C2CCCCC2C1=O)c1ccco1 (configuration not stated)	-1.05
CCCc1nc2sc3c(c2c(=O)n1NC(=O)CCCl)CCCC3	-0.355

For the molecule CCN(C(=O)C1CCCN(c2nc(-c3ccc(OC)cc3)no2)C1)c1ccc(OC)cc1 (configuration not stated) , give its reported growth rescue. 61.7

For the molecule CCc1ccc(C(=O)NNC(=O)C2CCN(c3ncnc4sc(C)c(C)c34)CC2)cc1 , give its reported growth rescue. 4.88

For the molecule CCCCCN1CC(O)=C(c2ccccc2)C1=N , give its reported growth rescue. 1.8

For the molecule CCCCCCCCCCCCn1ccc(=N)cc1 , give its reported growth rescue. 174

###

- protocol details: rescue of yeast from PfHsp40 toxicity, primary screen, S. cerevisiae, ATP luminescence (AID 504582);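 also: yeast W303a lacking pdr1 and pdr3 grown in galactose medium; growth measured after three days at 30 °C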
- condition notes: S. cerevisiae expressing PfHsp40, growth rescue, at 12.5 µM, hits give high values
Out of some 340,000 compounds screened, about 2,300 (0.68%) were called active. The full list was thinned out, with actives kept by preference.
observable: growth rescue (%)
Output spec: scalar in %, unitless text.

Worked set:
molecule	unit symbol	growth rescue
Cc1ccc(-c2nc(CSCC(=O)NC3CCN(Cc4ccccc4)CC3)c(C)o2)cc1	%	0.251
Cc1cc(NC(=O)CSCc2nc(-c3cccc(Cl)c3)oc2C)no1	%	-0.561
CCN(CC)C(=O)C1CCC(C)(C(=O)O)C1(C)C (stereo unspecified)	%	1.46
O=C(CSc1nc(C2CC2)nc2ccccc12)Nc1ccc2c(c1)OCCO2	%	0.157
O=S(=O)(NCCCc1ccccc1)c1ccc(Br)cc1	%	7.99

Then there is this molecule:
For the molecule COC(=O)[C@@H]1C[C@@]2(O)[C@H](O)[C@H](O)[C@H](O)C[C@H]2N1Cc1ccc(C)s1 , give its reported growth rescue. -1.59

###

Each item that follows carries a reported growth rescue.
- protocol details: rescue of yeast from PfHsp40 toxicity, primary screen, S. cerevisiae, ATP luminescence (AID 504582);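 also: yeast W303a lacking pdr1 and pdr3 grown in galactose medium; growth measured after three days at 30 °C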
- condition notes: S. cerevisiae expressing PfHsp40, growth rescue, at 12.5 µM, hits give high values
Hit rate of the full screen: of about 340,000 compounds, about 2,300 (0.68%) were called active. What follows is part of a selection rich in actives, with near analogues and random picks from the rest.
Output spec: scalar in %, unitless text.

Worked set:
Cc1ccc2[nH]c(C)c(CCNC(=O)NC3CCCCC3)c2c1 -0.354
Cc1cccc(-c2oc3ccc(-c4ccc5c(c4)OCO5)cc3c2C#Cc2cncn2C)c1 0.141
CCCCNc1c(-c2ccc(OC)c(Sc3ccc(OC)cc3)c2)nc2ccc(Cl)cn12 19.1

For the molecule O=C(/C=N/O)Nc1ccccc1 , give its reported growth rescue. -1.81

For the molecule CCc1ccc(OCC(=O)OCC(=O)c2c(N)n(C)c(=O)n(C)c2=O)cc1 , give its reported growth rescue. 1.51

For the molecule CC(=O)Nc1nc(N(C)C)nc(N(C)C)n1 , give its reported growth rescue. 1.85
